target: Glucocorticoid receptor (Homo sapiens); experiment: Agonist activity at glucocorticoid receptor by MMTV transactivation assay; type: functional
Sequence (P04150 whole entry): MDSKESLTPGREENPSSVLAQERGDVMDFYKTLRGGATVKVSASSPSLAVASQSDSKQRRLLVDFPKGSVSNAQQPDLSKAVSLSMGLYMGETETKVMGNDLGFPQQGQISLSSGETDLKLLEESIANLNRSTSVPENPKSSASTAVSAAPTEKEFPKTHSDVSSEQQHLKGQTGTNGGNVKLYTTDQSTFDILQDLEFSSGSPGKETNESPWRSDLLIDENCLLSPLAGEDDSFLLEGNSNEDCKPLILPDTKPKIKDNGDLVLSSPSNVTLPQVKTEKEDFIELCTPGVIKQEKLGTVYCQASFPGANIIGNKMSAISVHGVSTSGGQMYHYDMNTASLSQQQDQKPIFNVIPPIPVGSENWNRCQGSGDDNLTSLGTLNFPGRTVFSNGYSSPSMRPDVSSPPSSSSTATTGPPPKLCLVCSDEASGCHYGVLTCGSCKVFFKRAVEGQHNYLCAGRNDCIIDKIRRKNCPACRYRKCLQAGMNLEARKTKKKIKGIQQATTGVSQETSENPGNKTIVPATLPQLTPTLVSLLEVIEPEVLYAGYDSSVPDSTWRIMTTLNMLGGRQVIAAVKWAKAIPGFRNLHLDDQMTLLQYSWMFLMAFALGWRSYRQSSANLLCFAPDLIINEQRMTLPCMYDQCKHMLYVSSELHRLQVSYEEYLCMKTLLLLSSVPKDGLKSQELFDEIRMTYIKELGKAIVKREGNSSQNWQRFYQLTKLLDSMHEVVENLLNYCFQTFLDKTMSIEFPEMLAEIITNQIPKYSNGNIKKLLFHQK
recordedMetric: pEC50
One number for each entry, as −log10 of the molar value.

stdin: Tell me the measured pEC50 of CCN(C[C@](O)(CNC(=O)c1cnn(-c2ccc(F)cc2)c1N)C(F)(F)F)C(=O)c1c(Cl)cccc1Cl , please.
stdout: 8.70

----------
Target: Progesterone receptor (Homo sapiens, UniProt P06401)
Sequence (P06401 whole entry): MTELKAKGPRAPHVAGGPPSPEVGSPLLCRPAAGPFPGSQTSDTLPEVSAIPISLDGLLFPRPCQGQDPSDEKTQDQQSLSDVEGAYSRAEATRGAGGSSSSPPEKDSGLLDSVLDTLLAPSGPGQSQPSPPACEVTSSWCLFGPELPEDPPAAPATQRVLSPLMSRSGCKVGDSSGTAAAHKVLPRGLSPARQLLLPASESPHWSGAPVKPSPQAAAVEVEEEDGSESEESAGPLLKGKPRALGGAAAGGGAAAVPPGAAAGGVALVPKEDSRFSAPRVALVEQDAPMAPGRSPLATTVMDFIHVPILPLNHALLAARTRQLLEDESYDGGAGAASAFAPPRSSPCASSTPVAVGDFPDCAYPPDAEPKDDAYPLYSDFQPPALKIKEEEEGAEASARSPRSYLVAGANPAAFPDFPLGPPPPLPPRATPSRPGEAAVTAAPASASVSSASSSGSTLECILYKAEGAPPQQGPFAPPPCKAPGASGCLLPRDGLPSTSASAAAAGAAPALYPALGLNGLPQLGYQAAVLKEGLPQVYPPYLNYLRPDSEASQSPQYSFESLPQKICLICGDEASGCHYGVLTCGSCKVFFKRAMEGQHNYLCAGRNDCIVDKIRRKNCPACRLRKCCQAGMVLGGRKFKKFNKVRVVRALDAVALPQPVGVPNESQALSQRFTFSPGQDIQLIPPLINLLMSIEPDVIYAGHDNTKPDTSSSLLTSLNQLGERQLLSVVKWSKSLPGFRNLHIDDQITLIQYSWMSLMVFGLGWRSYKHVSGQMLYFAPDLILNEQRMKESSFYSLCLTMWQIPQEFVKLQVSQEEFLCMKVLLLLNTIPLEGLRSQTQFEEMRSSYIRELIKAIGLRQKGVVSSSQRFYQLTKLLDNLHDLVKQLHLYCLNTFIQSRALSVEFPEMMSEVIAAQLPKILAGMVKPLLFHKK
Assay: Binding affinity to progesterone receptor
recordedMetric: EC50

stdin: What value of EC50 on Progesterone receptor (Homo sapiens, UniProt P06401) does CCN(C[C@](O)(CNC(=O)c1cnn(-c2ccc(F)cc2)c1N)C(F)(F)F)C(=O)c1c(Cl)cccc1Cl have?
stdout: > 10 µM
